Measured TGI by item
# Tested on: NCI/ADR-RES ovarian
# assay.procedure: NCI tumour cell line growth inhibition, 48 h

Look over these answered cases.
[[record]]
compound = "O=C1CN2CCN(CC2)CC(=O)Nc2ccc(cc2)S(=O)(=O)c2ccc(cc2)NC(=O)CN2CCN(CC2)CC(=O)Nc2ccc(cc2)S(=O)(=O)c2ccc(cc2)N1"
result = "> 87.3 µM"

[[record]]
compound = "C[C@H](N)C(=O)Nc1ccc(-c2nc3ccccc3s2)cc1Cl"
result = "> 100 µM"

[[record]]
compound = "COc1ccc2nc3c(cc2c1)C(=O)CC(C(F)(F)F)C3 (stereo unspecified)"
result = "> 100 µM"

[[record]]
compound = "CCOC(=O)CCNC(=O)c1cc(C)cc2c1Oc1c(cc(C)cc1C(=O)NCCC(=O)OCC)S2"
result = "> 100 µM"

[[record]]
compound = "N=C(N)c1ccc(-c2ccc(-c3ccccc3)o2)o1"
result = "11 µM"

[[record]]
compound = "Nc1nc(N)c(N=Nc2ccc([As](=O)(O)O)c(O)c2)c(N)n1"
result = "> 100 µM"

[[record]]
compound = "O=C(Nc1ccc(-n2cc(-c3ccncc3)c(-c3ccc(Cl)c(O)c3)n2)cc1)c1ccc(Cl)c(C(F)(F)F)c1"
result = "> 100 µM"

[[record]]
compound = "O=CC1C(=O)Nc2nc3ccccc3n2C1c1ccccc1 (stereo unspecified)"
result = "> 100 µM"


-- ask What does the record list as TGI for OC(c1cc2c(Cl)cc(Cl)cc2c2cc(C(F)(F)F)ccc12)C1CCCCN1 (stereo unspecified) ?
-- reply 3.64 µM

-- ask And "CNC(=S)c1nnsc1N" ?
-- reply > 100 µM

-- ask And "Nc1c(C(=O)Nc2cccc3ccccc23)sc2nc3c(cc12)CCCCCC3" ?
-- reply > 50 µM

* * *

Measured TGI by item
# Tested on: BT-549 breast
# assay.procedure: NCI tumour cell line growth inhibition, 48 h

Look over these answered cases.
[[record]]
molecule = "CC1(C)CC(=O)C(/C=N/c2nc(-c3cccc([N+](=O)[O-])c3)cs2)=C(O)C1"
result = "54 µM"

[[record]]
molecule = "O=C(Nc1ccc(-n2cc(-c3ccncc3)c(-c3ccc(Cl)c(O)c3)n2)cc1)c1ccc(Cl)c(C(F)(F)F)c1"
result = "12.6 µM"

[[record]]
molecule = "COc1ccc(OC/C(N=Cc2cccnc2)=N/NC(=O)c2ccncc2)cc1"
result = "> 100 µM"


-- ask What does the record list as TGI for COc1ccc(/C=C2/C(=O)C(c3ccccc3)N(c3ccccc3)C2=O)cc1OC (stereo not given) ?
-- reply > 10 µM

-- ask And "Cc1cc(=O)[nH]c2c1C(=O)C(=O)C=C2" ?
-- reply > 100 µM

* * *

# Tested on: MDA-N
# assay.procedure: NCI tumour cell line growth inhibition, 48 h
Measured TGI by item
Answer in µM, number only, no unit symbol.

Look over these answered cases.
[[record]]
compound = "CCN(CC)CCCNc1c2cc(OC)ccc2nc2cccc([N+](=O)[O-])c12"
numeric_result = 0.277

[[record]]
compound = "Nc1nc(N)c(N=Nc2ccc([As](=O)(O)O)c(O)c2)c(N)n1"
numeric_result = 5.29


-- ask What does the record list as TGI for NC1=C(O)/C(=N/NS(=O)(=O)c2ccccc2)C(c2cccc(Cl)c2)O1 (stereo not given) ?
-- reply 37.9

-- ask And O=C1CSC2(CC(/C=C/c3ccccc3[N+](=O)[O-])=NN2c2cccc(S(=O)(=O)O)c2)N1c1nc2ccccc2s1 (stereo not given) ?
-- reply 50.6
